Every entry's value here was drawn from ChEMBL document CHEMBL1147488.

Readings of inhibition for the listed molecules
target: Prostaglandin G/H synthase 1 (Ovis aries) (UniProt P05979); conditions: at 10 µM;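 further: in vitro enzyme assay using COX-1 from ram seminal vesicle microsomes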
Sequence (P05979 whole entry): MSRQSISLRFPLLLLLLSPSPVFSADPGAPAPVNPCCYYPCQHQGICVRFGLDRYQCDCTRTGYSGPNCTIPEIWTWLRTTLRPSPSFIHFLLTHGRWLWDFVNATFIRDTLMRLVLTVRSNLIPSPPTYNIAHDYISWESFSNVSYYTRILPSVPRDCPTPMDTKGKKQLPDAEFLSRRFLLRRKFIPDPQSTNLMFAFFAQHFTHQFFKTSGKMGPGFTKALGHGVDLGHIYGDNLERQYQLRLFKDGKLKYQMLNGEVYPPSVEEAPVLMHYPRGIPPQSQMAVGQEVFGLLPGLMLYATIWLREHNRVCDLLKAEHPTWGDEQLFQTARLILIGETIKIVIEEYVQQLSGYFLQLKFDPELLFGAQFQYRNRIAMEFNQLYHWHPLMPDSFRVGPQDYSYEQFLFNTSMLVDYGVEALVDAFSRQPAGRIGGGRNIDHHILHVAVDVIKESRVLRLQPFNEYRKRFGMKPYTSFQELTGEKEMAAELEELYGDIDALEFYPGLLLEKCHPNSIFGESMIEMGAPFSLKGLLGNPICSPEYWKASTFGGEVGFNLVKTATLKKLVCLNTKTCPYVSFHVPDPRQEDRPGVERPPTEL
Description: In vitro inhibitory activity against prostaglandin G/H synthase 1 (COX-1) from the microsomal fraction of ram seminal vesicles at 10 uM concentration
assay-readout: inhibition (%)

>>> df
                                  mol_smiles  assay_readout  display_unit  readout_number
 0  Cc1cc(-c2ccc(NS(C)(=O)=O)cc2)n(-c2ccc(Br)cc2)n1     inhibition             %              10
 1  CS(=O)(=O)Nc1ccc(-c2cc(C(F)F)nn2-c2ccccc2Cl)cc1     inhibition             %              66
 2  CS(=O)(=O)Nc1ccc(-c2cc(C(F)F)nn2-c2ccc(Cl)c(Cl)c2)cc1     inhibition             %              43
 3  CC(=O)N(c1ccc(-c2cc(C(F)(F)F)nn2-c2ccc(Cl)cc2)cc1)S(C)(=O)=O     inhibition             %               0
 4  Cc1cc(-c2ccc(NS(C)(=O)=O)cc2)n(-c2ccc([N+](=O)[O-])cc2)n1     inhibition             %              40
 5  Cc1cc(-c2ccc(NS(C)(=O)=O)cc2)n(-c2ccccc2)n1     inhibition             %              34
 6  CS(=O)(=O)Nc1ccc(-c2cc(C(F)(F)F)nn2-c2ccc(F)c(F)c2)cc1     inhibition             %              32
 7  CS(=O)(=O)Nc1ccc(-c2cc(C(F)(F)F)nn2-c2cccc(F)c2)cc1     inhibition             %              49
 8  CS(=O)(=O)Nc1ccc(-c2cc(C(F)(F)F)nn2-c2ccc([N+](=O)[O-])cc2)cc1     inhibition             %              34
 9  CS(=O)(=O)Nc1ccc(-c2cc(C(F)(F)F)nn2-c2ccccc2F)cc1     inhibition             %              97
10  CS(=O)(=O)Nc1ccc(-c2cc(C(F)(F)F)nn2-c2ccc(N)cc2)cc1     inhibition             %              22
11  CS(=O)(=O)Nc1ccc(-c2cc(C(F)(F)F)nn2-c2ccc(Cl)cc2)cc1     inhibition             %              25
12  CS(=O)(=O)Nc1ccc(-c2cc(C(F)F)nn2-c2ccc(F)cc2)cc1     inhibition             %              22
13  CS(=O)(=O)Nc1ccc(-c2cc(C(F)(F)F)nn2-c2ccc(Cl)c(Cl)c2)cc1     inhibition             %              10
14  CC(=O)Nc1ccc(-c2cc(C(F)(F)F)nn2-c2ccc(Br)cc2)cc1     inhibition             %             100
15  CCCC(=O)N(c1ccc(-c2cc(C(F)(F)F)nn2-c2ccc(Cl)cc2)cc1)S(C)(=O)=O     inhibition             %               0
16  Cc1cc(-c2ccc(NS(C)(=O)=O)cc2)n(-c2ccc(F)cc2)n1     inhibition             %               0
17  CS(=O)(=O)Nc1ccc(-c2cc(C(F)(F)F)nn2-c2ccc(F)cc2)cc1     inhibition             %               6
18  Cc1ccc(S(=O)(=O)Nc2ccc(-c3cc(C(F)(F)F)nn3-c3ccc(Cl)cc3)cc2)cc1     inhibition             %               0
19  CS(=O)(=O)Nc1ccc(-c2cc(C(F)F)nn2-c2ccc(S(N)(=O)=O)cc2CO)cc1     inhibition             %             100
20  CS(=O)(=O)Nc1ccc(-c2cc(C(F)F)nn2-c2ccc(F)c(F)c2)cc1     inhibition             %              11
21  CS(=O)(=O)Nc1ccc(-c2cc(C(F)F)nn2-c2ccccc2)cc1     inhibition             %              22
22  CCCC(=O)N(c1ccc(-c2cc(C(F)F)nn2-c2ccc(Cl)cc2)cc1)S(C)(=O)=O     inhibition             %             100
